- protocol: qHTS Assay for Inhibitors of Fructose-1,6-bisphosphate Aldolase from Giardia Lamblia: Coupling assay counterscreen; further: on the % scale 0 is the no-effect control and ±100 the full control effect
- assay-setup: coupling enzyme system counterscreen, AmpLite Red fluorescence; at 58.2 µM (top of the series)
Screen size: about 290,000 compounds; about 2,000 (0.69%) were called active. This excerpt belongs to a sample that is enriched for actives.
readout-type: activity change, negative = inhibition (%)
// units = %; emit number, no label

Before answering, review these 7 worked examples.
In [3]: df
Out[3]:
                                   compound  quantitative_readout
0       CN(C)C[C@H]1CCCC[C@]1(O)c1cccc(O)c1                 0.267
1                    N#Cc1cc(Br)c(O)c(Br)c1                  2.57
2                    Cc1cccc2c(CCN)c[nH]c12                 -2.64
3  CCOC(=O)c1c(N)n(Cc2ccccc2)c2nc3ccccc3nc12                 -2.59
4  C[C@H]1C/C=C/[C@@H]2[C@@H]3O[C@]3(C)[C@@H](C)[C@H]3[C@H](Cc4ccccc4)NC(=O)[C@]32OC(=O)O/C=C/[C@](C)(O)C1=O                  1.28
5  CCOC(=O)C(O)(c1ccc(NC(=O)c2ccco2)c(OC)c1)C(F)(F)F (stereo not drawn)                 -4.29
6  CC(=O)[O][Sn]([c]1ccccc1)([c]1ccccc1)[c]1ccccc1                 -1.83

Please give measured activity change, negative = inhibition of the following entry: `Nc1ccc(-c2ccc(N)c(N)c2)cc1N`
3.84
